tested on: Lung; experiment: Biodistribution in lung of C57BL/6 mouse bearing mouse B16-F0 cells at 0.74 to 0.92 MBq, iv after 1 hr; type: ADME, organism-based; conditions: in vivo
QUANTITY: Drug uptake
Answer with the figure and its unit, nothing else.

stdin: Value lookup for Drug uptake; key = CCN(CC)CCNC(=O)c1cnc2cc([125I])ccc2n1.Cl.Cl
stdout: 7.83 % ID/g

stdin: Value lookup for Drug uptake; key = CCN(CC)CCNC(=O)c1cc2cc([125I])ccc2[nH]1.Cl
stdout: 14.41 % ID/g

stdin: Value lookup for Drug uptake; key = CCN(CC)CCNC(=O)c1cn2cc([125I])ccc2n1.Cl.Cl
stdout: 2.42 % ID/g

stdin: Value lookup for Drug uptake; key = CCN(CC)CCNC(=O)c1nc2cc([125I])ccc2[nH]1.Cl.Cl
stdout: 5.16 % ID/g

stdin: Value lookup for Drug uptake; key = CCN(CC)CCNC(=O)c1cc2c([125I])cccc2s1.Cl
stdout: 3.69 % ID/g

stdin: Value lookup for Drug uptake; key = CCN(CC)CCNC(=O)c1ccc2cc([125I])ccc2c1.Cl
stdout: 11.82 % ID/g

stdin: Value lookup for Drug uptake; key = CCN(CC)CCNC(=O)c1c[nH]c2ccc([125I])cc2c1=O.Cl.Cl
stdout: 2.06 % ID/g

stdin: Value lookup for Drug uptake; key = CCN(CC)CCNC(=O)c1ccc2cc([125I])ccc2n1.Cl.Cl
stdout: 9.41 % ID/g

stdin: Value lookup for Drug uptake; key = CCN(CC)CCNC(=O)c1ccc([125I])nc1.Cl.Cl
stdout: 7.59 % ID/g

stdin: Value lookup for Drug uptake; key = CCN(CC)CCNC(=O)c1cc2c([125I])cccc2cn1.Cl.Cl
stdout: 3.68 % ID/g

stdin: Value lookup for Drug uptake; key = CCN(CC)CCNC(=O)c1ccc2cncc([125I])c2n1.Cl.Cl
stdout: 2.36 % ID/g

stdin: Value lookup for Drug uptake; key = CCN(CC)CCNC(=O)c1cc2cc([125I])ccc2o1.Cl
stdout: 5.17 % ID/g

---

system: Muscle tissue; assay: Biodistribution in muscle of C57BL/6 mouse bearing mouse B16-F0 cells at 0.74 to 0.92 MBq, iv after 6 hrs; assay type: ADME, organism-based; conditions: in vivo
Exercise: for every item that follows, state its recorded Drug uptake.
The reply should be a number in % ID/g, with the unit left off.

stdin: Value lookup for Drug uptake; key = CCN(CC)CCNC(=O)c1cnc2cc([125I])ccc2n1.Cl.Cl
stdout: 0.87

stdin: Value lookup for Drug uptake; key = CCN(CC)CCNC(=O)c1cc2cc([125I])ccc2[nH]1.Cl
stdout: 0.31

stdin: Value lookup for Drug uptake; key = CCN(CC)CCNC(=O)c1c[nH]c2ccc([125I])cc2c1=O.Cl.Cl
stdout: 0.01

stdin: Value lookup for Drug uptake; key = CCN(CC)CCNC(=O)c1cc2cc([125I])ccc2o1.Cl
stdout: 0.19

stdin: Value lookup for Drug uptake; key = CCN(CC)CCNC(=O)c1ccc2cc([125I])ccc2c1.Cl
stdout: 0.38

stdin: Value lookup for Drug uptake; key = CCN(CC)CCNC(=O)c1ccc([125I])nc1.Cl.Cl
stdout: 0.53

stdin: Value lookup for Drug uptake; key = CCN(CC)CCNC(=O)c1ccc2cncc([125I])c2n1.Cl.Cl
stdout: 0.24

stdin: Value lookup for Drug uptake; key = CCN(CC)CCNC(=O)c1ccc2cc([125I])ccc2n1.Cl.Cl
stdout: 0.95
